Entry source: patent US8598157B2

Catalogue of compounds with associated EC50
Tested on: MB453 cells
MEASUREMENT DESCRIPTION: alamarBlue MB453 cell assay (antiproliferative/cytotoxicity)
Type: cell-based
PROTOCOL CONDITIONS: Homo sapiens; MDA MB 453 breast cancer cell line
Write it as a number; the unit nM goes unstated.

Task: Could you tell me which EC50 is on file for "COCCS(=O)(=O)Nc1cc(C#Cc2c(C)ncnc2N2CCOCC2)cnc1C" ?
Result: 839

Task: Could you tell me which EC50 is on file for "Cc1ncc(C#Cc2c(C)ncnc2N2CCOCC2)cc1NS(=O)(=O)c1c(F)cccc1F" ?
Result: 146

Next:
Task: Could you tell me which EC50 is on file for "COCCN(C)c1ncnc(C)c1C#Cc1cnc(C)c(NS(=O)(=O)c2ccccc2)c1" ?
Result: 2100

Task: Could you tell me which EC50 is on file for "COc1ncc(C#Cc2c(C)ncnc2N2CCOCC2)cc1NS(=O)(=O)c1ccc(F)cc1F" ?
Result: 28

----------
Catalogue of compounds with associated EC50
Tested on: MB453 cells
MEASUREMENT DESCRIPTION: alamarBlue MB453 cell assay (antiproliferative/cytotoxicity)
Format: cell-based
PROTOCOL CONDITIONS: Homo sapiens; MDA MB 453 breast cancer cell line

Task: Could you tell me which EC50 is on file for "Cc1ncc(C#Cc2c(C)ncnc2N2CCOCC2)cc1NS(=O)(=O)c1cn(C)c(C)n1" ?
Result: 1680 nM

Task: Could you tell me which EC50 is on file for "COCCN1CCN(c2ncnc(C)c2C#Cc2cnc(C)c(NS(=O)(=O)c3ccccc3)c2)CC1" ?
Result: 443 nM

Task: Could you tell me which EC50 is on file for "Cc1ncc(C#Cc2c(C)ncnc2N2CCOCC2)cc1NS(=O)(=O)C(C)C" ?
Result: 642 nM

Task: Could you tell me which EC50 is on file for "Cc1ncc(C#Cc2c(C)ncnc2N2CCOCC2)cc1NS(=O)(=O)c1ccc(Cl)s1" ?
Result: 298 nM

Task: Could you tell me which EC50 is on file for "COc1ncc(C#Cc2c(C)ncnc2N2CCOCC2)cc1NS(C)(=O)=O" ?
Result: 233 nM

Next:
Task: Could you tell me which EC50 is on file for "Cc1ncc(C#Cc2c(C)ncnc2N2CCOCC2)cc1NS(C)(=O)=O" ?
Result: 318 nM

Task: Could you tell me which EC50 is on file for "Cc1ncc(C#Cc2c(C)ncnc2N2CCN(C)CC2)cc1NS(=O)(=O)c1ccc(F)cc1F" ?
Result: 418 nM

Task: Could you tell me which EC50 is on file for "CCc1ncnc(N2CCOCC2)c1C#Cc1cnc(OC)c(NS(=O)(=O)c2ccc(F)cc2F)c1" ?
Result: 46 nM

Task: Could you tell me which EC50 is on file for "Cc1ncc(C#Cc2c(C)ncnc2N2CCOCC2)cc1NS(=O)(=O)c1cnoc1C" ?
Result: 25000 nM

Task: Could you tell me which EC50 is on file for "CC(=O)N1CCN(c2ncnc(C)c2C#Cc2cnc(C)c(NS(=O)(=O)c3ccccc3)c2)CC1" ?
Result: 262 nM

Task: Could you tell me which EC50 is on file for "CCCS(=O)(=O)Nc1cc(C#Cc2c(C)ncnc2N2CCOCC2)cnc1C" ?
Result: 777 nM

Task: Could you tell me which EC50 is on file for "Cc1ncc(C#Cc2c(C)ncnc2N2CCOCC2)cc1NS(=O)(=O)c1ccc(F)cc1" ?
Result: 148 nM

Task: Could you tell me which EC50 is on file for "Cc1ncc(C#Cc2c(C)ncnc2N2CCOCC2)cc1NS(=O)(=O)c1cccnc1" ?
Result: 274 nM

Task: Could you tell me which EC50 is on file for "COc1cccc(S(=O)(=O)Nc2cc(C#Cc3c(C)ncnc3N3CCOCC3)cnc2C)c1" ?
Result: 294 nM

Task: Could you tell me which EC50 is on file for "Cc1ncc(C#Cc2c(C)ncnc2N2CCOCC2)cc1NS(=O)(=O)c1ccco1" ?
Result: 393 nM

Task: Could you tell me which EC50 is on file for "Cc1ncnc(N2CCOCC2)c1C#Cc1cncc(NS(=O)(=O)c2cnn(C)c2)c1" ?
Result: 1040 nM

Task: Could you tell me which EC50 is on file for "Cc1ncc(C#Cc2c(C)ncnc2N2CCOCC2)cc1NS(=O)(=O)c1c(C)noc1C" ?
Result: 915 nM
